These entries and their values trace back to the RNAGym collection of RNA variant scans (doi:10.7554/elife.80360).

B1: HDV Ribozyme (parent)
chain: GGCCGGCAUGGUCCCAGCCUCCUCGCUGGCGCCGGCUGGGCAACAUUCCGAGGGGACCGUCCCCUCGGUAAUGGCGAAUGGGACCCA

# Variants of: B1
# Experiment summary: self-cleavage, relative activity (ratio to wild type); higher = more cleavage; co-transcriptional
Examples of variants with documented self-cleavage follow.
Reported endpoint: self-cleavage

In [3]: df
Out[3]:
    mutant_code  reported_endpoint  assay_value
 0    C32U U72G      self-cleavage        0.494
 1     G2A C15U      self-cleavage        0.113
 2     G2A A51U      self-cleavage        0.155
 3    A56U C84U      self-cleavage        0.808
 4     U9A A71U      self-cleavage        0.688
 5    C15A C24A      self-cleavage        0.378
 6    A56G U69C      self-cleavage         1.32
 7    A45U G50A      self-cleavage        0.844
 8    C18U U23G      self-cleavage        0.383
 9    G68A A71G      self-cleavage        0.904
10    G34C C41U      self-cleavage       0.0378
11     C7A C58G      self-cleavage        0.705
12    C33A U46C      self-cleavage       0.0875
13    G50U A51G      self-cleavage        0.956
14    C22U A70G      self-cleavage        0.577
15    G11A C21G      self-cleavage         0.04
16    C26G C32A      self-cleavage        0.326
17    G25U A45G      self-cleavage        0.401
18      G5A A8U      self-cleavage        0.151
19    C32A C66G      self-cleavage        0.213
